ASSAY_SYSTEM: Delta-type opioid receptor (Cricetulus griseus) (UniProt G3H1Y1)
Sequence (G3H1Y1 as listed by the source): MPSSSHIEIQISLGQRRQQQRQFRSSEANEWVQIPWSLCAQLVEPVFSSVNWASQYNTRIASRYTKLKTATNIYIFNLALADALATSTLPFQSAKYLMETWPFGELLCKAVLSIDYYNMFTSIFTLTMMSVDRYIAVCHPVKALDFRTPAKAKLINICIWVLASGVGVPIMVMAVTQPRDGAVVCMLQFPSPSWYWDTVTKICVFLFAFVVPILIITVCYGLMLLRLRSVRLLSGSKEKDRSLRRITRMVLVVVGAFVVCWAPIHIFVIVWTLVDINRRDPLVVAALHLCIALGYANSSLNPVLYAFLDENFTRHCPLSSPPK
ASSAY_PROCEDURE: Displacement of [3H]DADLE from delta opioid receptor in CHO cells at 10 uM after 120 mins relative to control
Assay type: cell-based
Criterion met means recorded inhibition is 60% or above; Criterion not met means it is below 60%.

MOLECULAR_STRING: COc1ccc2c3c1O[C@H]1[C@@H](OC(=O)C(C)(C)C)C=C[C@H]4[C@@H](C2)N(C)CC[C@@]341
QUALITATIVE_LABEL: Criterion met
--
MOLECULAR_STRING: CCCCCCCCCCCC(=O)O[C@H]1C=C[C@H]2[C@H]3Cc4ccc(OC)c5c4[C@@]2(CCN3C)[C@H]1O5
QUALITATIVE_LABEL: Criterion not met
--
MOLECULAR_STRING: CN1CC[C@]23c4c5ccc(O)c4O[C@H]2[C@@H](O)C=C[C@H]3[C@H]1C5
QUALITATIVE_LABEL: Criterion met
--
MOLECULAR_STRING: COc1ccc2c3c1O[C@H]1[C@@H](O)CC[C@H]4[C@@H](C2)N(C)CC[C@@]341
QUALITATIVE_LABEL: Criterion not met
